Data provenance is ChEMBL document CHEMBL4414672.

Each entry below carries its reported inhibition of growth at 10 µM.
Test system: SK-MEL-5
TEST METHOD NOTES: Growth inhibition of human SK-MEL-5 cells at 10^-5 M incubated for 48 hrs by sulforhodamine B assay
Format: functional
STATED CONDITIONS: SK-MEL-5, 48 h, read-out: GI
Give the number; % is assumed, so skip it.

Solved cases below.
S=C1Nc2c(sc3ccc(Cl)cc23)C(c2ccc3ccccc3c2)N1 (stereo unspecified) : 5.24
NC(=O)CSC1=Nc2c(sc3ccc(Cl)cc23)C(c2cccc([N+](=O)[O-])c2)N1 (stereo unspecified) : 4.8
S=C1Nc2c(sc3ccc(Cl)cc23)C(c2cccc(Br)c2)N1 (stereo unspecified) : 3.95
N=C1Nc2c(sc3ccc(Cl)cc23)C(c2ccc3ccccc3c2)N1 (stereo unspecified) : -0.53
O=C1Nc2c(sc3ccc(Cl)cc23)C(c2cccc([N+](=O)[O-])c2)N1 (stereo unspecified) : 2.85
O=[N+]([O-])c1cccc(C2c3sc4ccc(Cl)cc4c3N=C3NN=C(c4cccc(F)c4)N32)c1 (stereo unspecified) : 4.01
O=C1/C(=C\c2ccccc2O)Sc2ccc(Cl)cc21 : 4.61
N=C1Nc2c(sc3ccc(Cl)cc23)C(c2cccc(Br)c2)N1 (stereo unspecified) : 3.53

Query: inhibition of growth at 10 µM; subject: O=C1Nc2c(sc3ccc(Cl)cc23)C(c2cccc(Br)c2)N1 (stereo unspecified)
3.66

Query: inhibition of growth at 10 µM; subject: O=C1/C(=C\c2cccc([N+](=O)[O-])c2)Sc2ccc(Cl)cc21
8.13

* * *

System: T47D
TEST METHOD NOTES: Growth inhibition of human T47D cells at 10^-5 M incubated for 48 hrs by sulforhodamine B assay
Type: functional
STATED CONDITIONS: read-out: GI
Would you mind labelling by inhibition of growth at 10 µM? At or over 20% is 1, under is 0.

Recorded results for 7 molecules are shown here.
CCOC(=O)CSC1=Nc2c(sc3ccc(Cl)cc23)C(c2cccc([N+](=O)[O-])c2)N1 (stereo not drawn) : 1
O=[N+]([O-])c1cccc(C2NC(=S)Nc3c2sc2ccc(Cl)cc32)c1 (stereo not drawn) : 1
O=C1Nc2c(sc3ccc(Cl)cc23)C(c2cccc(Br)c2)N1 (stereo not drawn) : 0
O=C1/C(=C\c2ccccc2O)Sc2ccc(Cl)cc21 : 1
N=C1Nc2c(sc3ccc(Cl)cc23)C(c2cccc(Br)c2)N1 (stereo not drawn) : 0
S=C1Nc2c(sc3ccc(Cl)cc23)C(c2ccc3ccccc3c2)N1 (stereo not drawn) : 1
O=[N+]([O-])c1cccc(C2c3sc4ccc(Cl)cc4c3N=C3NN=C(c4cccc(F)c4)N32)c1 (stereo not drawn) : 0

Turning to the following molecule.
Could you verify whether the entry O=[N+]([O-])c1cccc(C2c3sc4ccc(Cl)cc4c3N=C3NN=CN32)c1 (stereo not drawn) shows inhibition of growth at 10 µM of no less than 20%?
0

* * *

Test system: 786-0
TEST METHOD NOTES: Growth inhibition of human 786-0 cells at 10^-5 M incubated for 48 hrs by sulforhodamine B assay
Type: functional
STATED CONDITIONS: 786-0, 48 h, read-out: GI
Each entry below carries its reported inhibition of growth at 10 µM.
Give the number; % is assumed, so skip it.

Solved cases below.
S=C1Nc2c(sc3ccc(Cl)cc23)C(c2cccc(Br)c2)N1 (centres undefined) : -0.33
O=C1CSC2=Nc3c(sc4ccc(Cl)cc34)C(c3ccc4ccccc4c3)N12 (centres undefined) : 2.84
O=C1/C(=C\c2ccccc2O)Sc2ccc(Cl)cc21 : -0.39

Now turn to the next molecule.
Query: inhibition of growth at 10 µM; subject: O=[N+]([O-])c1cccc(C2c3sc4ccc(Cl)cc4c3N=C3NN=NN32)c1 (centres undefined)
9.33

* * *

Test system: UACC-257
TEST METHOD NOTES: Growth inhibition of human UACC257 cells at 10^-5 M incubated for 48 hrs by sulforhodamine B assay
Format: functional
STATED CONDITIONS: UACC-257, 48 h, read-out: GI
RECORDED ENDPOINT: inhibition of growth at 10 µM (%)
Give the number; % is assumed, so skip it.

N#Cc1cnn(C2=Nc3c(sc4ccc(Cl)cc34)C(c3cccc([N+](=O)[O-])c3)N2)c1N (configuration not stated) : -3.69
S=C1Nc2c(sc3ccc(Cl)cc23)C(c2cccc(Br)c2)N1 (configuration not stated) : -8.63
NC(=O)CSC1=Nc2c(sc3ccc(Cl)cc23)C(c2cccc([N+](=O)[O-])c2)N1 (configuration not stated) : -1.31
CCOC(=O)CSC1=Nc2c(sc3ccc(Cl)cc23)C(c2cccc([N+](=O)[O-])c2)N1 (configuration not stated) : 2.03

Query: inhibition of growth at 10 µM; subject: N=C1Nc2c(sc3ccc(Cl)cc23)C(c2ccc3ccccc3c2)N1 (configuration not stated)
8.66

Query: inhibition of growth at 10 µM; subject: S=C1Nc2c(sc3ccc(Cl)cc23)C(c2ccc3ccccc3c2)N1 (configuration not stated)
1.95

Query: inhibition of growth at 10 µM; subject: Oc1ccccc1C1NC(=S)Nc2c1sc1ccc(Cl)cc21 (configuration not stated)
-1.4

* * *

System: SK-MEL-5
TEST METHOD NOTES: Growth inhibition of human SK-MEL-5 cells at 10^-5 M incubated for 48 hrs by sulforhodamine B assay
Format: functional
STATED CONDITIONS: SK-MEL-5, 48 h, read-out: GI
RECORDED ENDPOINT: inhibition of growth at 10 µM (%)
Give the number; % is assumed, so skip it.

Solved cases below.
N=C1Nc2c(sc3ccc(Cl)cc23)C(c2cccc([N+](=O)[O-])c2)N1 (configuration not stated) : -2.55
O=C1/C(=C\c2ccc3ccccc3c2)Sc2ccc(Cl)cc21 : 5.71
Cc1cc(C)n(C2=Nc3c(sc4ccc(Cl)cc34)C(c3cccc([N+](=O)[O-])c3)N2)n1 (configuration not stated) : 4.68
O=C1CSC2=Nc3c(sc4ccc(Cl)cc34)C(c3ccc4ccccc4c3)N12 (configuration not stated) : 2.92

Query: inhibition of growth at 10 µM; subject: O=C1Nc2c(sc3ccc(Cl)cc23)C(c2ccc3ccccc3c2)N1 (configuration not stated)
1.82

Query: inhibition of growth at 10 µM; subject: Oc1ccccc1C1NC(=S)Nc2c1sc1ccc(Cl)cc21 (configuration not stated)
6.32

Query: inhibition of growth at 10 µM; subject: O=[N+]([O-])c1cccc(C2NC(=S)Nc3c2sc2ccc(Cl)cc32)c1 (configuration not stated)
4.44

* * *

Each entry below carries its reported inhibition of growth at 10 µM.
Tested on: T47D
TEST METHOD NOTES: Growth inhibition of human T47D cells at 10^-5 M incubated for 48 hrs by sulforhodamine B assay
Assay type: functional
STATED CONDITIONS: read-out: GI
Give the number; % is assumed, so skip it.

S=C1Nc2c(sc3ccc(Cl)cc23)C(c2cccc(Br)c2)N1 (stereo unspecified) : 24.5
O=[N+]([O-])c1cccc(C2NC(N3CCOCC3)=Nc3c2sc2ccc(Cl)cc32)c1 (stereo unspecified) : 21.6
N=C1Nc2c(sc3ccc(Cl)cc23)C(c2ccccc2O)N1 (stereo unspecified) : -13.9
Oc1ccccc1C1NC(=S)Nc2c1sc1ccc(Cl)cc21 (stereo unspecified) : 24.8
O=[N+]([O-])c1cccc(C2c3sc4ccc(Cl)cc4c3N=C3NN=NN32)c1 (stereo unspecified) : -8.85
O=C1/C(=C\c2ccc3ccccc3c2)Sc2ccc(Cl)cc21 : 29.5
NNC1=Nc2c(sc3ccc(Cl)cc23)C(c2cccc([N+](=O)[O-])c2)N1 (stereo unspecified) : 12.8
O=C1/C(=C\c2cccc([N+](=O)[O-])c2)Sc2ccc(Cl)cc21 : 13.1
O=C1/C(=C\c2cccc(Br)c2)Sc2ccc(Cl)cc21 : 1.47
O=C1Nc2c(sc3ccc(Cl)cc23)C(c2ccc3ccccc3c2)N1 (stereo unspecified) : 24.2

Now turn to the next molecule.
Query: inhibition of growth at 10 µM; subject: O=C1Nc2c(sc3ccc(Cl)cc23)C(c2ccccc2O)N1 (stereo unspecified)
18.1

* * *

System: MDA-MB-435
TEST METHOD NOTES: Growth inhibition of human MDA-MB-435 cells at 10^-5 M incubated for 48 hrs by sulforhodamine B assay
Assay type: functional
STATED CONDITIONS: MDA-MB-435, 48 h, read-out: GI
Each entry below carries its reported inhibition of growth at 10 µM.
Give the number; % is assumed, so skip it.

Solved cases below.
O=C1SC2=Nc3c(sc4ccc(Cl)cc34)C(c3ccc4ccccc4c3)N2C1=O (stereo not drawn) : 2.92
O=C1/C(=C\c2cccc([N+](=O)[O-])c2)Sc2ccc(Cl)cc21 : 35.4

Query: inhibition of growth at 10 µM; subject: O=C1Nc2c(sc3ccc(Cl)cc23)C(c2cccc([N+](=O)[O-])c2)N1 (stereo not drawn)
-2.51

Query: inhibition of growth at 10 µM; subject: O=C1/C(=C\c2ccc3ccccc3c2)Sc2ccc(Cl)cc21
-2.15

Query: inhibition of growth at 10 µM; subject: N=C1Nc2c(sc3ccc(Cl)cc23)C(c2ccc3ccccc3c2)N1 (stereo not drawn)
-4.57
